test system: MOLT-4 leukemia; assay: NCI-60 one-dose screen, 48 h (100 = growth as untreated, 0 = no growth, -100 = all killed); details: 10 µM unless noted
About 83,000 compounds went through this panel and 20% of them were active in at least one assay; those are over-represented in the sample as a whole.
observable: growth (%)
Give the quantity in %, number only.

Example results:
compound	assay-target	reading
COc1ccc(CN2C(=O)/C(=C\C(=O)c3ccc(OCCN4CCCCC4)cc3)c3ccccc32)cc1	MOLT-4 leukemia	3.78
CCC(C)(CC)c1ccc(O)c(C)c1	MOLT-4 leukemia	106
COc1cc(-c2nn(-c3ccc(NC(=O)Nc4ccc(Cl)c(C(F)(F)F)c4)cc3)cc2-c2ccncc2)ccc1Cl	MOLT-4 leukemia	1.77
C/C=C(/C)C(=O)OC1C=C(CO)C(=O)C(OC(=O)/C(C)=C\C)C1C(C)C (configuration not stated)	MOLT-4 leukemia	-16.8

Noted for "COc1ccc(-c2cn3ccnc3c(-c3ccc4ncn(C5CCCCC5)c4c3)n2)cc1" : its growth reads 17.2

Noted for "CCCCCCCCCCCCCCCCNC(=S)N/N=C/c1ccc(O)cc1O" : its growth reads 48.5

Noted for "O=C(Nc1cccc(Cn2c(=O)[nH]c3ccc(Oc4ncccn4)cc3c2=O)c1)c1ccc(Cl)cc1" : its growth reads 22.5

Noted for CC(O)CCC(C)[N+](=O)[O-] (configuration not stated) : its growth reads 102

Noted for CC([C@H]1CCC2C3CCC4C[C@@H](N)CC[C@]4(C)C3CC[C@@]21C)N(C)C (some centres not stated) : its growth reads 38.6

Noted for "O=C1N/C(=N\c2nnc(-c3ccc(O)cc3)s2)S/C1=C\c1ccccc1O" : its growth reads 100

Noted for "COc1ccc(/C=C(/C(=O)N2CCN(c3ccc(C)cc3)CC2)c2cc(OC)c(OC)c(OC)c2)cc1N" : its growth reads 17.5

---

tested on: NCI-H522 lung; experiment: NCI-60 one-dose screen, 48 h; conditions: 10 µM
About 83,000 compounds went through this panel and 20% of them were active in at least one assay; those are over-represented in the sample as a whole. Active and inactive are the calls of the source. The calls were made as follows: active = growth percent below 10; inactive = the rest.
The reply should be one of these categories: active, inactive

Some solved entries appear below for comparison.
compound	label
COc1ccc(C(O)(c2ccccc2)C(C(=O)O)c2ccccc2)cc1 (configuration not stated)	inactive
COc1ccc(C(=O)CN2C(=O)NC(c3ccccc3)(c3ccccc3)C2=O)cc1	inactive
N#Cc1ccc(NC2c3ccccc3CC2O)cc1 (configuration not stated)	inactive

Now take the following compound into account.
Please let me know the test result on file for "O=C(Oc1ccccc1)c1ccccc1Cl" . inactive

---

Readings of growth for the listed compounds
system: ACHN renal; assay: NCI-60 one-dose screen, 48 h (100 = growth as untreated, 0 = no growth, -100 = all killed); conditions: 10 µM unless noted
About 83,000 compounds went through this panel and 20% of them were active in at least one assay; those are over-represented in the sample as a whole.
Give the quantity in %, number only.

compound	growth [%]
CCCCCSc1ccc2nc(NC(=O)OCCC)sc2c1	42.8
Nc1cc(N)c2nc(NCCc3ccc(Cl)c(Cl)c3)cnc2c1	62.6
FC(F)(F)c1cccc(-c2[nH]ncc2-c2nnnn2-c2ccccc2)c1	68.6
Cc1ccc(CC(=O)O)c(C)c1	110
CCOC(=O)c1sc(NS(=O)(=O)c2ccccc2)nc1C	123

Observed growth, ACHN renal, "CCOc1ccc(/C=N/NC(=O)c2cccc3ccccc23)cc1OCC" : 102

Observed growth, ACHN renal, "CCCCCc1ccnc(CC(=O)c2ccc(OC)cc2)c1" : 93.2

Observed growth, ACHN renal, "O=C(N/N=C/c1cc(Cl)ccc1O)C(=O)N/N=C/c1cc(Cl)ccc1O" : 53.4

Observed growth, ACHN renal, "Clc1ccc(N/N=C(\c2ccccc2)c2ccccn2)nc1" : 8.31

Observed growth, ACHN renal, "CCCNC(=O)Oc1ccc(/C(=C(/C)Cc2ccc(OC)cc2)c2ccc(OCCN3CCCC3)cc2)cc1" : 78.6

Observed growth, ACHN renal, "CN1NC(c2ccccc2)NN(C)C1=O" : 95.1

Observed growth, ACHN renal, "COc1cc(CNC(=O)CCCC/C=C/C(C)C)ccc1OCc1nnc(Nc2ccccc2F)o1" : 56.1

Observed growth, ACHN renal, CC(=O)OC1CC2C3CCC4C[C@@H](NC(=O)C=C(C)C)CC[C@]4(C)C3CC[C@]2(C)[C@H]1C(C)N(C)C (some centres undefined) : 21.4

Observed growth, ACHN renal, C/C=C(/C)C(=O)OC1C=C(CO)C(=O)C(OC(=O)C2(C)OC2C)C1C(C)C (centres undefined) : -96.8

---

tested on: SF-539 CNS; assay: NCI-60 one-dose screen, 48 h; settings: 10 µM unless noted
About 83,000 compounds went through this panel and 20% of them were active in at least one assay; those are over-represented in the sample as a whole. Active and inactive are the calls of the source. The calls were made as follows: active = growth percent below 10; inactive = the rest.
The reply should be one of these categories: Y (active), N (inactive)

Some solved entries appear below for comparison.
compound	assay-target	label
COc1ccccc1CNCCCN1C(=O)c2ccc3c4c(ccc(c24)C1=O)C(=O)N(CCCNCc1ccccc1OC)C3=O	SF-539 CNS	Y
CCn1cnc(C[C@H](NC(=O)[C@@H](NC(=O)Nc2cc(C(F)(F)F)cc(C(F)(F)F)c2)C(C)C)C(=O)OC)c1	SF-539 CNS	Y
c1ccc(-c2cn3ccnc3c(-c3ccc4ncn(C5CCCCC5)c4c3)n2)cc1	SF-539 CNS	N
CNc1ccc(Nc2ccc(S(=O)(=O)O)cc2)c2c1C(=O)c1ccccc1C2=O	SF-539 CNS	N
NC(=O)CC(NC(=O)COc1ccc(Cl)cc1Cl)C(=O)O (centres undefined)	SF-539 CNS	N

Please let me know the test result on file for "O=C(O)COc1ccc([N+](=O)[O-])cc1Cl" . N

Please let me know the test result on file for "O=C(/C=C1\C(=O)N(Cc2ccc([N+](=O)[O-])cc2)c2ccccc21)c1ccc(OCCN2CCCCC2)cc1" . Y

Please let me know the test result on file for CC1(C)CC(=O)C2=C(C1)Oc1nc(N)c(C#N)c(N)c1C2c1ccc(F)cc1 (centres undefined) . N

Please let me know the test result on file for "O=C(Nc1ccc(Cl)c(Cl)c1)O/N=C\c1c(Cl)ccc([N+](=O)[O-])c1Cl" . Y

Please let me know the test result on file for "Nc1ccc(S(=O)(=O)Nc2cc(F)cc(F)c2)cc1" . N

---

system: IGROV1 ovarian; test: NCI-60 one-dose screen, 48 h; settings: 10 µM unless noted
The panel holds about 83,000 compounds, 20% with a hit somewhere; the sample as a whole holds those more often. Calls of active or inactive are those of the source. Rule for the calls: active = growth percent below 10; inactive = the rest.
The reply should be one of these categories: active, inactive

Some solved entries appear below for comparison.
compound	label
CCOC(=O)NC1=NCC(C)(C)S1	inactive
CCC(CCCN1C(=O)c2ccccc2C1=O)Nc1cc(OC)cc2cccnc12 (stereo unspecified)	active
CCOC(=O)CCCCCCCCC(=O)OCC	inactive
CC(=O)Oc1cc2ccccc2cc1C(C)C	inactive
CC(=O)Nc1nc(C)c(C(=O)N/N=C/N2CCCCC2)s1	active

Please let me know the test result on file for "Cc1ccc(C(=O)Nc2ccc(CN3CCN(C)CC3)c(C(F)(F)F)c2)cc1C#Cc1cnc(N)c2ccc(C#N)cc12" . inactive

Please let me know the test result on file for "CCCCCCNC(=O)Oc1ccc(/C(=C(/C)Cc2ccc(OC)cc2)c2ccc(OCCN3CCCCC3)cc2)cc1" . inactive

Please let me know the test result on file for C=C[C@]1(C)C=C2C(=O)[C@@]3(O)OC[C@@]4(CCCC(C)(C)C43O)C2(O)C(O)C1 (stereo partly specified) . inactive

Please let me know the test result on file for "N#Cc1c2ncccc2c2nnc3cc(Cl)c(Cl)cc3n12" . inactive

Please let me know the test result on file for "CC1(C)Oc2cc3oc(=O)ccc3cc2C[C@@H]1OCCOS(=O)(=O)c1ccc(C#N)cc1" . inactive

Please let me know the test result on file for "Clc1ccc(N/N=C(/c2ccccc2)c2ccccn2)nc1" . inactive

Please let me know the test result on file for "CN1NC(c2ccccc2)NN(C)C1=O" . inactive

Please let me know the test result on file for "C#CCCCCCCC[C@@H]1OC(=O)[C@H]([C@@H](C)CC)NC(=O)[C@H]([C@@H](C)CC)NC(=O)CC(=O)[C@@H]1C" . inactive

Please let me know the test result on file for "CC(=O)Nc1nc(C)c(C(=O)NNS(=O)(=O)c2ccccc2)s1" . active

Please let me know the test result on file for O=C1C(Br)=CC2C1C1C3CCC3C2(Br)C12OCCO2 (stereo unspecified) . inactive

Please let me know the test result on file for "O=C(/C=C/c1ccc(Cl)cc1)c1ccc(Cl)cc1" . inactive

Please let me know the test result on file for "Ic1ccc(SSc2ccc(I)cc2)cc1" . inactive

Please let me know the test result on file for "COC(=O)c1ccc2[nH]c(O)c(C(=Nc3ccc(N(C)C(=O)CN4CCN(C)CC4)cc3)c3ccc(CCO)cc3)c2c1" . inactive

Please let me know the test result on file for "O=CN/N=C/c1ccc(Cl)c([N+](=O)[O-])c1" . inactive

Please let me know the test result on file for "COc1cc(-c2nn(-c3ccc(NC(=O)c4ccc(Cl)c(C(F)(F)F)c4)cc3)cc2-c2ccncc2)ccc1Cl" . inactive

Please let me know the test result on file for "O=C(C(=O)N1CCOCC1)c1ccc(O[C@H]2O[C@H](CO)[C@@H](O)[C@H](O)[C@@H]2O)cc1" . inactive
